Below are compounds with their IC50 as measured on UniProt:P33261.
Sequence (P33261 whole entry): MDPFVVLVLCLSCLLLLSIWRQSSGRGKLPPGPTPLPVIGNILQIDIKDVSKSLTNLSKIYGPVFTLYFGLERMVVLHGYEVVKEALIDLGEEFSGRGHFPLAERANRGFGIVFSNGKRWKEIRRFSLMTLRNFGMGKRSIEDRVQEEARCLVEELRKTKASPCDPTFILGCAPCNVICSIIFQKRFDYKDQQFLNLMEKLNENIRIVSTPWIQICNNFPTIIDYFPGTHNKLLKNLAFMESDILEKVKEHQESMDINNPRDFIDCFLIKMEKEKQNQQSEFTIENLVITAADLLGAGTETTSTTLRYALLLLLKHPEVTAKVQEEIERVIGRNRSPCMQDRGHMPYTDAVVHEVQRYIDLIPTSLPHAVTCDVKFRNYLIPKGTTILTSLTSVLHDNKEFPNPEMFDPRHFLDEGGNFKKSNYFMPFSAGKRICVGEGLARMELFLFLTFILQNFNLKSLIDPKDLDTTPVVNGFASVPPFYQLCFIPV
Measurement Name: IC50

INSERT INTO measurements (compound, readout_value) VALUES
  ('Cn1c(SCCCN2CCOC(c3ccc(C(F)(F)F)cc3)C2)nnc1-c1ccc(C(N)=O)cc1 (stereo in doubt; 26)', '> 30 µM'),
  ('Cc1ncoc1-c1nnc(SCCCN2CCOC(c3ccc(F)cc3)C2)n1C (stereo in doubt; 7)', '> 30 µM'),
  ('Cc1ncoc1-c1nnc(SCCCN2CCOC(c3ccc(C(F)(F)F)cc3)C2)n1C (stereo in doubt; 9)', '> 6 µM');

====

Below are molecules with their Ki as measured on D(3) dopamine receptor (Rattus norvegicus, UniProt P19020).
Sequence (P19020 whole entry): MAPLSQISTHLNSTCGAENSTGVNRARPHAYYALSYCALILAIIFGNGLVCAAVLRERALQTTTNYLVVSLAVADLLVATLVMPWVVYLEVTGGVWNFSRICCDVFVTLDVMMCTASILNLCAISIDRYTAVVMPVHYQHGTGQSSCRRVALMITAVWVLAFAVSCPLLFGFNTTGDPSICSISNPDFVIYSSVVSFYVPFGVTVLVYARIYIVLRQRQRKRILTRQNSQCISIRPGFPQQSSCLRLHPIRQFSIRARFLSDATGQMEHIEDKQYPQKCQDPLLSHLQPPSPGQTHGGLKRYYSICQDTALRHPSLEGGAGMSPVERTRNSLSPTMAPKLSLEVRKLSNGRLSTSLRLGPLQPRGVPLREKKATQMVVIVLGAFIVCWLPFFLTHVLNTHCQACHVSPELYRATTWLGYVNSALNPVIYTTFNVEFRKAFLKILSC
Measurement Name: Ki (nM)

INSERT INTO assay_data (molecule, result_unit, readout_value) VALUES
  ('Cn1c(SCCCN2CCOC(c3ccc(C(F)(F)F)cc3)C2)nnc1-c1ccc(S(N)(=O)=O)cc1 (racemic)', 'nM', 126),
  ('Cc1ncoc1-c1nnc(SCCCN2CCOC(c3ccc(C(F)(F)F)cc3F)C2)n1C (racemic)', 'nM', 200),
  ('CC(=O)c1ccc(-c2nnc(SCCCN3CCOC(c4ccc(C(F)(F)F)cc4)C3)n2C)cc1 (racemic)', 'nM', 63.1),
  ('Cc1ncoc1-c1nnc(SCCCN2CCOC(c3ccc(F)cc3)C2)n1C (stereo in doubt; 7)', 'nM', 251),
  ('Cn1c(SCCCN2CCOC(c3ccc(C(F)(F)F)cc3)C2)nnc1-c1ccc(-c2ncco2)cc1 (stereo in doubt; 34)', 'nM', 6.31),
  ('Cc1ncoc1-c1nnc(SCCCN2CCOC(c3ccc(F)cc3)C2)n1C (racemic)', 'nM', 398),
  ('Cc1ncoc1-c1nnc(SCCCN2CCOC(c3ccc(C(F)(F)F)cc3)C2)n1C (stereo in doubt; 9)', 'nM', 50.1),
  ('Cc1nc(-c2ccc(-c3nnc(SCCCN4CCOC(c5ccc(C(F)(F)F)cc5)C4)n3C)cc2)no1 (racemic)', 'nM', 25.1);

====

- Target Entity: D(3) dopamine receptor (Rattus norvegicus)
pKi: −log10 of the molar value.
Binary classification by pKi, with 7 as an inclusive lower bound for Condition met; all other cases are Condition not met.

INSERT INTO results (compound, class) VALUES
  ('Cn1c(SCCCN2CCOC(c3ccc(C(F)(F)F)cc3)C2)nnc1-c1ccc(C(N)=O)cc1 (stereo in doubt; 26)', 'Condition met'),
  ('Cn1c(SCCCN2CCOC(c3ccc(C(F)(F)F)cc3)C2)nnc1-c1ccc(-c2ncco2)cc1 (stereo in doubt; 33)', 'Condition not met'),
  ('Cc1ncoc1-c1nnc(SCCCN2CCOC(c3ccc(Br)cc3)C2)n1C (racemic)', 'Condition not met'),
  ('Cn1c(SCCCN2CCOC(c3ccc(C(F)(F)F)cc3)C2)nnc1-c1ccc(C(N)=O)cc1 (racemic)', 'Condition met');

====

- Target Entity: D(3) dopamine receptor (Homo sapiens, UniProt P35462)
- Sequence (P35462 whole entry): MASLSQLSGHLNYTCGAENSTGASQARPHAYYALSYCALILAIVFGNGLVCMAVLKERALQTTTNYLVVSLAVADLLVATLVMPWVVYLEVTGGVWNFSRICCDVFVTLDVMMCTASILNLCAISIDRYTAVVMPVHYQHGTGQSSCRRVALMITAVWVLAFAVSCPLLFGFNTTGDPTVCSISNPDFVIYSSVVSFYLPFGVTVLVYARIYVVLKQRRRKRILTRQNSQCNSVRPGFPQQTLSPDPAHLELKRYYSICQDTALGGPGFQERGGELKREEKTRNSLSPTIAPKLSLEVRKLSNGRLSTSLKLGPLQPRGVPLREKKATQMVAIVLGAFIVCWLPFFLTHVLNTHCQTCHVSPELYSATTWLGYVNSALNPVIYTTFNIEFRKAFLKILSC
- Assay Name: Antagonist activity at human dopamine D3 receptor expressed in CHO cells after 90 mins by [35S]-GTPgamma S assay
- Assay type: cell-based
Criterion: Ki strictly less than 20 nM. Met: T. Not met: F.

INSERT INTO measurements (compound, class) VALUES
  ('Cn1c(SCCCN2CCOC(c3ccc(C(F)(F)F)cc3)C2)nnc1-c1ccc(-c2ncco2)cc1 (racemic)', 'T'),
  ('Cc1ncoc1-c1nnc(SCCCCN2CCOC(c3ccc(C(F)(F)F)cc3)C2)n1C (racemic)', 'F'),
  ('Cn1c(SCCCN2CCOC(c3ccc(C(F)(F)F)cc3)C2)nnc1-c1ccc(-c2ncco2)cc1 (stereo in doubt; 34)', 'T'),
  ('Cc1ccc(C2CN(CCCSc3nnc(-c4ccc(-c5noc(C)n5)cc4)n3C)CCO2)cc1 (racemic)', 'T'),
  ('Cc1nc(-c2ccc(-c3nnc(SCCCN4CCOC(c5ccc(C(F)(F)F)cc5)C4)n3C)cc2)no1 (racemic)', 'T'),
  ('Cn1c(SCCCN2CCOC(c3ccc(C(F)(F)F)cc3)C2)nnc1-c1ccc(C(N)=O)nc1 (racemic)', 'T'),
  ('Cc1ncoc1-c1nnc(SCCCCN2CCOC(c3ccc(C(F)(F)F)cc3)C2)n1C (stereo in doubt; 11)', 'T'),
  ('Cn1c(SCCCN2CCOC(c3ccc(C(F)(F)F)cc3)C2)nnc1-c1ccc(C(N)=O)cc1 (stereo in doubt; 26)', 'T'),
  ('Cn1c(SCCCN2CCOC(c3ccc(C(F)(F)F)cc3)C2)nnc1-c1ccc(-c2nnco2)cc1 (racemic)', 'T'),
  ('Cn1c(SCCCN2CCOC(c3ccc(C(F)(F)F)cc3F)C2)nnc1-c1ccc(C(N)=O)cc1 (racemic)', 'F');
